System under test: T1, EDIII-DV4 (Dengue virus serotype 4 (DV4), UniProt P09866 580-672)
T1 construct: also called EDIII of DV4; DV4 EDIII
T1 sequence (P09866 580-672 limits assumed): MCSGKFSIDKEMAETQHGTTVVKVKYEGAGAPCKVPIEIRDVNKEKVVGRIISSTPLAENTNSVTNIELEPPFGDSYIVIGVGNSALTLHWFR
Assay notes: competition ELISA; affinity relative to 4E5A
Measured endpoint: REL AFFINITY
Answer as a number with no unit attached.

IN: Given VH_G27A (antibody, V domains shown) VH: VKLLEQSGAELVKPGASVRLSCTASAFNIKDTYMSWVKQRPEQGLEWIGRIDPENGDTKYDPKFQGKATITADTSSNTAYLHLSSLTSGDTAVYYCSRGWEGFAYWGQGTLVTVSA VL: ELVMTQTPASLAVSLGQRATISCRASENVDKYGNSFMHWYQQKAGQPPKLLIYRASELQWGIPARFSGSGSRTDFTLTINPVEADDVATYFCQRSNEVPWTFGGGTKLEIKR , state its recorded REL AFFINITY.
OUT: 2.92

IN: Another binder to look at: VH_G27P (antibody, V domains shown, also called 4E5-G27P; copies: 2 + 2) VH: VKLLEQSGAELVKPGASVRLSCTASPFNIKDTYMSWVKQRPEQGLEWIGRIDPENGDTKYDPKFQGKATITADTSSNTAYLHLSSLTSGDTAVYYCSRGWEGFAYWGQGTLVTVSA VL: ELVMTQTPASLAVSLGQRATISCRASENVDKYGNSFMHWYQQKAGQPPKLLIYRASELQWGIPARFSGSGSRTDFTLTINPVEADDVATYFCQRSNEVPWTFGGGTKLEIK
OUT: 0.06

IN: Another binder to look at: VH_G27_del (antibody, V domains shown) VH: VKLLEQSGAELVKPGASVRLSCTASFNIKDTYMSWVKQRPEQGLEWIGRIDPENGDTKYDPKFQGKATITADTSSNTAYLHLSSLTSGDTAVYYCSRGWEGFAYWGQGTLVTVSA VL: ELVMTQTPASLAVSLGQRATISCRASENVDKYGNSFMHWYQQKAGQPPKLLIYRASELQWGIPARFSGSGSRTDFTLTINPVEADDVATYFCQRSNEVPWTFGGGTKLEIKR
OUT: 4.78

Now, please, on to the next binder.
IN: Given VH_A25_del (antibody, V domains shown, also called 4E5-del-25; copies: 2 + 2) VH: VKLLEQSGAELVKPGASVRLSCTSGFNIKDTYMSWVKQRPEQGLEWIGRIDPENGDTKYDPKFQGKATITADTSSNTAYLHLSSLTSGDTAVYYCSRGWEGFAYWGQGTLVTVSA VL: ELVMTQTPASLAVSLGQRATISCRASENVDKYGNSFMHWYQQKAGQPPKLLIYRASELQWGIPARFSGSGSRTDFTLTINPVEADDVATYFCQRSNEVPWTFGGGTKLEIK , state its recorded REL AFFINITY.
OUT: 0.54

Data credit: patent US20200207841A1
